# assay.summary: In vitro antiviral activity against HIV-1 Reverse transcriptase M184V mutant
measure: pEC50
Here pEC50 is given on a logarithmic scale as minus log10 of the concentration in mol/L.

[[record]]
compound = "Cc1cn([C@H]2C=C[C@@H](CO)O2)c(=O)[nH]c1=O [2',3'-didehydro-3'-deoxythymidine]"
measure = "pEC50"
numeric_value = 6.30


q: Look at this compound and give its reported pEC50. Nc1nc(=O)n([C@@H]2C=C[C@H](CO)O2)cc1F [ACH-126443]
a: 6.85
